The measurements presented in this section are drawn from ChEMBL document CHEMBL4819098.

System: RAW264.7
Assay: Inhibition of LPS-induced TNFalpha production in mouse RAW264.7 cells preincubated for 2 hrs followed by LPS stimulation and measured after 20 hrs by ELISA
Format: functional, cell-based
Entries and their IC50
Property Name: IC50 (µM)

[[record]]
structure_smiles = "COc1ccc2nc(O)c(/C=N/n3c(=S)[nH]nc(Cc4cc(OC)c(OC)c(OC)c4)c3=O)cc2c1"
bound_type = ">"
result = 50

[[record]]
structure_smiles = "COc1ccc2cc(/C=N/n3c(=S)[nH]nc(Cc4cc(OC)c(OC)c(OC)c4)c3=O)c(O)nc2c1"
bound_type = "="
result = 2.61

[[record]]
structure_smiles = "COc1cc(Cc2n[nH]c(=S)n(/N=C/c3cc4ccc(OCc5ccccc5)cc4nc3Cl)c2=O)cc(OC)c1OC"
bound_type = "="
result = 16

[[record]]
structure_smiles = "Cc1ccc2nc(O)c(/C=N/n3c(=S)[nH]nc(Cc4cccs4)c3=O)cc2c1"
bound_type = "="
result = 3.4

